experiment: NCI Yeast Anticancer Drug Screen. Data for the mec2-1 strain (AID 157); conditions: S. cerevisiae mec2-1 strain, at 50.0 µM, active compounds read high
Compounds without any hit were thinned out: in the full panel of roughly 79,000, 15% have a hit.
Recorded growth inhibition, one value per entry.
Expressed in %, but write only the number.

Check out these entries, answers already filled in.
[[record]]
molecule = "O=C(Cc1ccccc1CC(=O)Oc1ccccc1)Oc1ccccc1"
measured_quantity = "growth inhibition"
quantitative_readout = -3.9

[[record]]
molecule = "CCC(COC(=O)C(c1ccccc1)c1ccccc1)NC1CCCCC1 (stereo unspecified)"
measured_quantity = "growth inhibition"
quantitative_readout = 14.3


Request: Kindly indicate its recorded growth inhibition. Item: CCOC(=O)C1CC(=O)c2cc(OC)c(OC)cc2C1c1ccc(OC)c(OC)c1 (stereo unspecified)
Response: -14.1

Request: Kindly indicate its recorded growth inhibition. Item: CC(C(=O)c1ccccc1)C(O)(C(F)(F)F)C(F)(F)F (stereo unspecified)
Response: 2.6

Request: Kindly indicate its recorded growth inhibition. Item: "CC/C(=N/Nc1cn[nH]c(=O)c1Cl)c1ccccc1"
Response: -0.6

Request: Kindly indicate its recorded growth inhibition. Item: "Cc1cccc(C)c1NC(=O)C(=O)CC(=O)CO"
Response: -18.3

---

experiment: NCI Yeast Anticancer Drug Screen. Data for the mec2-1 strain (AID 157); details: S. cerevisiae mec2-1 strain, at 50.0 µM
The panel holds about 79,000 compounds, 15% with a hit somewhere; the sample as a whole holds those more often. Calls of active or inactive are those of the source. Cut-off read from the data, not from the text of the source: active = growth inhibition above about 70%; inactive = the rest.
Please answer using one outcome listed in y for active, n for inactive

[[record]]
compound = "O=C(Nc1ccc(Cl)cc1[N+](=O)[O-])Oc1ccc(-c2ccccc2)cc1Cl"
cat = "y"

[[record]]
compound = "CC1CCC(=O)CN1Cc1ccccc1 (stereo unspecified)"
cat = "n"

[[record]]
compound = "CC1(C)CC(OP(=O)(c2ccccc2)c2ccccc2)CC(C)(C)N1O"
cat = "n"

[[record]]
compound = "CC1=C(C(=O)NCc2ccccc2)C(/C=C/c2ccccc2)C(C(=O)NCc2ccccc2)=C(C)N1"
cat = "n"

[[record]]
compound = "C=CCCCCCCCCCCCCCCCCCC"
cat = "n"


Next:
Request: Hi team, can someone confirm the assay call for "Nc1ncnc2c1ncn2CCCCC(=O)O" ?
Response: n

---

Recorded growth inhibition, one value per entry.
assay: NCI Yeast Anticancer Drug Screen. Data for the rad50 strain (AID 155);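 note: 0% = growth of vehicle-only cultures of the same strain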; details: S. cerevisiae rad50 strain growth inhibition; at 50.0 µM; active compounds read high
Compounds without any hit were thinned out: in the full panel of roughly 79,000, 15% have a hit.
Expressed in %, but write only the number.

Check out these entries, answers already filled in.
[[record]]
molecule = "O=C1C2Cc3ccccc3CN2C(=O)N1CN1CCN(CN2C(=O)C3Cc4ccccc4CN3C2=O)CC1 (stereo not drawn)"
measured_quantity = "growth inhibition"
units = "%"
quantitative_readout = -13.1

[[record]]
molecule = "CCN(CCC#N)C(=S)Nc1ccc(C)c(C)c1"
measured_quantity = "growth inhibition"
units = "%"
quantitative_readout = -9


The record that follows has no growth inhibition shown yet.
Request: Kindly indicate its recorded growth inhibition. Item: "CO/C(=N\N=C\c1cccc(C(F)(F)F)c1)c1ccncc1"
Response: 27.3

---

assay: NCI Yeast Anticancer Drug Screen. Data for the cln2 rad14 strain (AID 165);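 note: 0% = growth equal to vehicle treated cultures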; conditions: S. cerevisiae cln2 rad14 strain, at 50.0 µM, active compounds read high
About 79,000 compounds went through this panel and 15% of them were active in at least one assay; those are over-represented in the sample as a whole.
Recorded growth inhibition, one value per entry.
Expressed in %, but write only the number.

[[record]]
compound = "Cc1ccc([N+](=O)[O-])cc1NC(=O)COc1ccc(Cl)cc1Cl"
measured_quantity = "growth inhibition"
quantitative_readout = 10.2


Request: Kindly indicate its recorded growth inhibition. Item: CC(C)CN1CC(C)C(=O)NC1=O (stereo not drawn)
Response: 3.85

Request: Kindly indicate its recorded growth inhibition. Item: "C=CCS(=O)(=O)c1ccc(Cl)cc1"
Response: -24.6

Request: Kindly indicate its recorded growth inhibition. Item: CC(=O)C(C(=O)NCc1ccccc1)C(c1ccc2c(c1)OCO2)C(C(C)=O)C(=O)NCc1ccccc1 (stereo not drawn)
Response: -17.3

Request: Kindly indicate its recorded growth inhibition. Item: "C/C(C=C(C#N)C#N)=C\c1cccc(F)c1"
Response: 48.1

Request: Kindly indicate its recorded growth inhibition. Item: CC1CCC2(CC1)OC(C)C(C)O2 (stereo not drawn)
Response: -34.6

Request: Kindly indicate its recorded growth inhibition. Item: "COc1cccc(C[n+]2cc([O-])on2)c1"
Response: -27.5

---

assay: NCI Yeast Anticancer Drug Screen. Data for the mlh1 rad18 strain (AID 175); conditions: S. cerevisiae mlh1 rad18 strain growth inhibition; at 50.0 µM; active compounds read high
Compounds without any hit were thinned out: in the full panel of roughly 79,000, 15% have a hit.
MEASURED QUANTITY: growth inhibition (%)
Expressed in %, but write only the number.

[[record]]
molecule = "CC(C)(C)OC(=O)N(CCCCNC(=O)c1ccccc1)CCCNC(=O)c1ccccc1"
quantitative_readout = -64

[[record]]
molecule = "O=C(O)C=C(CBr)CBr"
quantitative_readout = 9.05

[[record]]
molecule = "CN(C)C(=O)CCCC(=O)c1cccc([N+](=O)[O-])c1"
quantitative_readout = -13.3

[[record]]
molecule = "Nc1nc2ccc3ccccc3c2c(=O)[nH]1"
quantitative_readout = 12.7

[[record]]
molecule = "CC(=O)OC1Cc2ccccc2C1OC(C)=O (stereo unspecified)"
quantitative_readout = 7.1

[[record]]
molecule = "CC(C)NC(=O)Nc1ccccc1Cl"
quantitative_readout = -0.7

[[record]]
molecule = "CNc1ccc(OC)cc1S(=O)(=O)c1ccccc1[N+](=O)[O-]"
quantitative_readout = -22.2

[[record]]
molecule = "COc1cc(C2(C)SCCCS2)c(I)c(OC)c1OC"
quantitative_readout = -14.4

[[record]]
molecule = "C=CCOC(=O)CCC(CCC(=O)OCC=C)C(C)=O"
quantitative_readout = -11.5

[[record]]
molecule = "Nc1nc(Br)nc2ncn(C3CC(O)C(CO)O3)c12 (stereo unspecified)"
quantitative_readout = -4.9


Request: Kindly indicate its recorded growth inhibition. Item: "Cn1c(Cc2ccccc2)c([N+](=O)[O-])c(=O)n(C)c1=O"
Response: -2.4

Request: Kindly indicate its recorded growth inhibition. Item: "CCc1nc2c(cnn2C)c(=O)n1-c1ccccc1"
Response: 7.55

Request: Kindly indicate its recorded growth inhibition. Item: "O=C(NCCCl)Nc1cccc2c1CCC2"
Response: -4.8

---

experiment: NCI Yeast Anticancer Drug Screen. Data for the sgs1 mgt1 strain (AID 161);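 note: 0% = growth of cultures given vehicle only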; details: S. cerevisiae sgs1 mgt1 strain, at 50.0 µM, active compounds read high
The panel holds about 79,000 compounds, 15% with a hit somewhere; the sample as a whole holds those more often.
MEASURED QUANTITY: growth inhibition (%)
Expressed in %, but write only the number.

Check out these entries, answers already filled in.
[[record]]
compound = "CC(C)CCOCC(O)CNCCN (configuration not stated)"
measured_quantity = "growth inhibition"
quantitative_readout = -14.7

[[record]]
compound = "OC1(Cl)c2cccc3cccc(c23)C1(O)Cl (configuration not stated)"
measured_quantity = "growth inhibition"
quantitative_readout = 2.6

[[record]]
compound = "Clc1cccc(NNc2cccc(Cl)c2)c1"
measured_quantity = "growth inhibition"
quantitative_readout = -13.8

[[record]]
compound = "O=[N+]([O-])c1ccc(S(=O)(=O)c2ccc(N=Cc3ccc(C=Nc4ccc(S(=O)(=O)c5ccc([N+](=O)[O-])cc5)cc4)cc3)cc2)cc1"
measured_quantity = "growth inhibition"
quantitative_readout = 1.15


Request: Kindly indicate its recorded growth inhibition. Item: "CN(C)c1ccc(/[N+]([O-])=C/c2cccc3ccccc23)cc1"
Response: 15.2

Request: Kindly indicate its recorded growth inhibition. Item: "Nc1ccc(Cl)c(N)c1"
Response: 18.2

Request: Kindly indicate its recorded growth inhibition. Item: "COc1ccc(NC(=S)Nc2ccccc2)cc1"
Response: -22.6

---

experiment: NCI Yeast Anticancer Drug Screen. Data for the rad50 strain (AID 155);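 note: 0% = growth of vehicle-only cultures of the same strain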; details: S. cerevisiae rad50 strain growth inhibition; at 50.0 µM; active compounds read high
The panel holds about 79,000 compounds, 15% with a hit somewhere; the sample as a whole holds those more often.
# if value of growth inhibition reaches -20%, tag met; if it stays below, tag not met

[[record]]
molecule = "CN(C)Cc1cc(C(=O)/C=C/c2ccccc2Cl)cc(CN(C)C)c1O"
cat = "not met"

[[record]]
molecule = "CNC(C)C#N (stereo not given)"
cat = "met"

[[record]]
molecule = "OCc1ccccc1"
cat = "met"


Request: Quick check, growth inhibition >= -20%? "CN(C)C12CCC(c3ccccc31)c1ccccc12"
Response: met

Request: Quick check, growth inhibition >= -20%? "C1CCCCC2(CCCCCCCCC3(CCC1)OCCO3)OCCO2"
Response: met
